System: Streptococcus pneumoniae
ASSAY NAME: Antibacterial activity against erythromycin-susceptible Streptococcus pneumoniae ATCC 49619 by broth microdilution method
Assay type: functional
REPORTED PROPERTY: MIC
Answer format: number, then unit.

[in] Which measured MIC value corresponds to CC[C@H]1OC(=O)[C@H](C)[C@@H](OC/C=C/c2cncnc2)[C@H](C)[C@@H](O[C@@H]2O[C@H](C)C[C@H](N(C)C)[C@H]2O)[C@](C)(OC)C[C@@H](C)C(=O)[C@H](C)[C@@H](O)[C@]1(C)O ?
[out] 8 µg/mL

[in] I am curious: what MIC value has been reported for CC[C@H]1OC(=O)[C@H](C)[C@@H](OC/C=C/c2cncnc2)[C@H](C)[C@@H](O[C@@H]2O[C@H](C)C[C@H](N(C)C)[C@H]2O)[C@](C)(OC)C[C@@H](C)/C(=N\OCc2ccccc2)[C@H](C)[C@H]2OC(=O)O[C@@]21C ?
[out] 2 µg/mL

---

Please provide measured MIC for the entries that follow.
System: Staphylococcus aureus
ASSAY NAME: Antibacterial activity against methicillin-susceptible, inducible MLS-resistant Staphylococcus aureus PU 64 by broth microdilution method
Type: functional
Reply with just the number (in µg/mL).

[in] Please tell me: MIC of CC[C@H]1OC(=O)[C@H](C)[C@@H](O/C=C\Cc2cncnc2)[C@H](C)[C@@H](O[C@@H]2O[C@H](C)C[C@H](N(C)C)[C@H]2O)[C@](C)(OC)C[C@@H](C)/C(=N\O)[C@H](C)[C@H]2OC(=O)O[C@@]21C , system Staphylococcus aureus?
[out] 0.25

[in] Short answer please: MIC, Staphylococcus aureus, entry CC[C@H]1OC(=O)[C@H](C)[C@@H](OCCCc2cncnc2)[C@H](C)[C@@H](O[C@@H]2O[C@H](C)C[C@H](N(C)C)[C@H]2O)[C@](C)(OC)C[C@@H](C)/C(=N\O)[C@H](C)[C@@H](O)[C@]1(C)O
[out] 8

---

System: Streptococcus pneumoniae
ASSAY NAME: Antibacterial activity against erythromycin-susceptible Streptococcus pneumoniae ATCC 49619 by broth microdilution method
Type: functional
# label = Fulfilled if MIC < 0.5 µg/mL else Not fulfilled

[in] Identify whether the compound C=CCO[C@H]1[C@H](C)[C@@H](O[C@@H]2O[C@H](C)C[C@H](N(C)C)[C@H]2O)[C@](C)(OC)C[C@@H](C)C(=O)[C@H](C)[C@@H](O)[C@](C)(O)[C@@H](CC)OC(=O)[C@@H]1C records MIC below 0.5 µg/mL.
[out] Not fulfilled

[in] Threshold test, MIC < 0.5 µg/mL: CC[C@H]1OC(=O)[C@H](C)[C@@H](O/C=C\Cc2cncnc2)[C@H](C)[C@@H](O[C@@H]2O[C@H](C)C[C@H](N(C)C)[C@H]2O)[C@](C)(OC)C[C@@H](C)/C(=N\O)[C@H](C)[C@@H](O)[C@]1(C)O
[out] Fulfilled

[in] A record lists CC[C@H]1OC(=O)[C@H](C)[C@@H](OCC#Cc2cccnc2)[C@H](C)[C@@H](O[C@@H]2O[C@H](C)C[C@H](N(C)C)[C@H]2O)[C@](C)(OC)C[C@@H](C)/C(=N\OCc2ccccc2Cl)[C@H](C)[C@H]2OC(=O)O[C@@]21C . Is its MIC below 0.5 µg/mL?
[out] Not fulfilled

[in] Check if MIC falls below 0.5 µg/mL for CC[C@H]1OC(=O)[C@H](C)[C@@H](OCCCc2cncnc2)[C@H](C)[C@@H](O[C@@H]2O[C@H](C)C[C@H](N(C)C)[C@H]2O)[C@](C)(OC)C[C@@H](C)/C(=N\OCc2ccccc2Cl)[C@H](C)[C@H]2OC(=O)O[C@@]21C .
[out] Not fulfilled

---

System: Staphylococcus hominis
ASSAY NAME: Antibacterial activity against methicillin-resistant, coagulase-negative, inducible MLS-resistant Staphylococcus hominis E3 by broth microdilution method
Format: functional
Provide the reported MIC of each item.

[in] Requested read-out: MIC. Entry: CC[C@H]1OC(=O)[C@H](C)[C@@H](OC/C=C/c2cncnc2)[C@H](C)[C@@H](O[C@@H]2O[C@H](C)C[C@H](N(C)C)[C@H]2O)[C@](C)(OC)C[C@@H](C)/C(=N\O)[C@H](C)[C@H]2OC(=O)O[C@@]21C
[out] > 256 µg/mL

[in] Endpoint output: MIC of CC[C@H]1OC(=O)[C@H](C)[C@@H](OC/C=C/c2cncnc2)[C@H](C)[C@@H](O[C@@H]2O[C@H](C)C[C@H](N(C)C)[C@H]2O)[C@](C)(OC)C[C@@H](C)C(=O)[C@H](C)[C@@H](O)[C@]1(C)O . Value?
[out] > 256 µg/mL

[in] May I ask what MIC has been recorded for CC[C@H]1OC(=O)[C@H](C)[C@@H](O/C=C\Cc2cncnc2)[C@H](C)[C@@H](O[C@@H]2O[C@H](C)C[C@H](N(C)C)[C@H]2O)[C@](C)(OC)C[C@@H](C)C(=O)[C@H](C)[C@@H](O)[C@]1(C)O ?
[out] 8 µg/mL

[in] Report MIC for CC[C@H]1OC(=O)[C@H](C)[C@@H](OC/C=C/c2cncnc2)[C@H](C)[C@@H](O[C@@H]2O[C@H](C)C[C@H](N(C)C)[C@H]2O)[C@](C)(OC)C[C@@H](C)/C(=N\OCc2c(C)cc(C)cc2C)[C@H](C)[C@H]2OC(=O)O[C@@]21C please.
[out] > 256 µg/mL

---

Tested on: Streptococcus pneumoniae
ASSAY NAME: Antibacterial activity against penicillin-, constitutive MLS-resistant Streptococcus pneumoniae PU 11 by broth microdilution method
Format: functional
REPORTED PROPERTY: MIC (µg/mL)
Use µg/mL as the unit, but write only the number.

[in] Can you share its MIC? I mean this compound: CC[C@H]1OC(=O)[C@H](C)[C@@H](OC/C=C/c2cncnc2)[C@H](C)[C@@H](O[C@@H]2O[C@H](C)C[C@H](N(C)C)[C@H]2O)[C@](C)(OC)C[C@@H](C)/C(=N\OCc2ccccc2)[C@H](C)[C@H]2OC(=O)O[C@@]21C
[out] 64

[in] For the compound CC[C@H]1OC(=O)[C@H](C)[C@@H](OC/C=C/c2cncnc2)[C@H](C)[C@@H](O[C@@H]2O[C@H](C)C[C@H](N(C)C)[C@H]2O)[C@](C)(OC)C[C@@H](C)/C(=N\OCc2c(C)cc(C)cc2C)[C@H](C)[C@H]2OC(=O)O[C@@]21C , what MIC is on record?
[out] 64

---

Answer each item with its documented log10 of MIC.
Tested on: Streptococcus pneumoniae
ASSAY NAME: Antibacterial activity against erythromycin-susceptible Streptococcus pneumoniae ATCC 49619 by broth microdilution method
Type: functional
Field: value | Transform: log10 | Quantity: MIC | Unit: µg/mL

[in] Fill in: log10 of MIC of CC[C@H]1OC(=O)[C@H](C)[C@@H](O[C@H]2C[C@@](C)(OC)[C@@H](O)[C@H](C)O2)[C@H](C)[C@@H](O[C@@H]2O[C@H](C)C[C@H](N(C)C)[C@H]2O)[C@](C)(O)C[C@@H](C)CN(C)[C@H](C)[C@@H](O)[C@]1(C)O [AZITHROMYCIN] is ___
[out] -0.60

[in] For the molecule shown here, CC[C@H]1OC(=O)[C@H](C)[C@@H](O/C=C\Cc2cncnc2)[C@H](C)[C@@H](O[C@@H]2O[C@H](C)C[C@H](N(C)C)[C@H]2O)[C@](C)(OC)C[C@@H](C)/C(=N\O)[C@H](C)[C@H]2OC(=O)O[C@@]21C , give the reported log10 of MIC.
[out] -1.49

[in] Quick one: log10 of MIC of CC[C@H]1OC(=O)[C@H](C)[C@@H](OC/C=C/c2cncnc2)[C@H](C)[C@@H](O[C@@H]2O[C@H](C)C[C@H](N(C)C)[C@H]2O)[C@](C)(OC)C[C@@H](C)/C(=N\OCc2c(C)cc(C)cc2C)[C@H](C)[C@H]2OC(=O)O[C@@]21C ?
[out] 1.20

[in] What does the data say about its log10 of MIC? Entry: C=CCO[C@H]1[C@H](C)[C@@H](O[C@@H]2O[C@H](C)C[C@H](N(C)C)[C@H]2O)[C@](C)(OC)C[C@@H](C)/C(=N\O)[C@H](C)[C@@H](O)[C@](C)(O)[C@@H](CC)OC(=O)[C@@H]1C
[out] 1.20

[in] Quick one: log10 of MIC of CC[C@H]1OC(=O)[C@H](C)[C@@H](OC/C=C/c2cncnc2)[C@H](C)[C@@H](O[C@@H]2O[C@H](C)C[C@H](N(C)C)[C@H]2O)[C@](C)(OC)C[C@@H](C)/C(=N\OCc2ccccc2Cl)[C@H](C)[C@H]2OC(=O)O[C@@]21C ?
[out] 0.60

[in] Entry under review: CC[C@H]1OC(=O)[C@H](C)[C@@H](OC/C=C/c2cncc3ccccc23)[C@H](C)[C@@H](O[C@@H]2O[C@H](C)C[C@H](N(C)C)[C@H]2O)[C@](C)(OC)C[C@@H](C)/C(=N\OCc2ccccc2Cl)[C@H](C)[C@H]2OC(=O)O[C@@]21C . Reported log10 of MIC?
[out] 1.20

[in] Fill in: log10 of MIC of CC[C@H]1OC(=O)[C@H](C)[C@@H](O/C=C\Cc2cncnc2)[C@H](C)[C@@H](O[C@@H]2O[C@H](C)C[C@H](N(C)C)[C@H]2O)[C@](C)(OC)C[C@@H](C)/C(=N\OCc2ccccc2)[C@H](C)[C@@H](O)[C@]1(C)O is ___
[out] 0.30

[in] Sample CC[C@H]1OC(=O)[C@H](C)[C@@H](OC/C=C/c2ccc(-n3ccnc3)cc2)[C@H](C)[C@@H](O[C@@H]2O[C@H](C)C[C@H](N(C)C)[C@H]2O)[C@](C)(OC)C[C@@H](C)/C(=N\OCc2ccccc2Cl)[C@H](C)[C@H]2OC(=O)O[C@@]21C — what was its log10 of MIC?
[out] 1.20

[in] Entry under review: CC[C@H]1OC(=O)[C@H](C)[C@@H](O[C@H]2C[C@@](C)(OC)[C@@H](O)[C@H](C)O2)[C@H](C)[C@@H](O[C@@H]2O[C@H](C)C[C@H](N(C)C)[C@H]2O)[C@](C)(OC)C[C@@H](C)C(=O)[C@H](C)[C@@H](O)[C@]1(C)O [CLARITHROMYCIN] . Reported log10 of MIC?
[out] -1.49

[in] Dear colleague, I am looking for the recorded log10 of MIC of the following molecule: CC[C@H]1OC(=O)[C@H](C)[C@@H](OC/C=C/c2cccnc2)[C@H](C)[C@@H](O[C@@H]2O[C@H](C)C[C@H](N(C)C)[C@H]2O)[C@](C)(OC)C[C@@H](C)/C(=N\OCc2ccccc2Cl)[C@H](C)[C@H]2OC(=O)O[C@@]21C
[out] 0.60

[in] # query: log10 of MIC of entry CC[C@H]1OC(=O)[C@H](C)[C@@H](O/C=C\Cc2cncnc2)[C@H](C)[C@@H](O[C@@H]2O[C@H](C)C[C@H](N(C)C)[C@H]2O)[C@](C)(OC)C[C@@H](C)C(=O)[C@H](C)[C@@H](O)[C@]1(C)O
[out] 0.00

[in] Look up log10 of MIC: CC[C@H]1OC(=O)[C@H](C)[C@@H](O/C=C\Cc2cncnc2)[C@H](C)[C@@H](O[C@@H]2O[C@H](C)C[C@H](N(C)C)[C@H]2O)[C@](C)(OC)C[C@@H](C)/C(=N\OCc2ccccc2Cl)[C@H](C)[C@H]2OC(=O)O[C@@]21C
[out] -0.60

[in] State the recorded log10 of MIC for this entry: CC[C@H]1OC(=O)[C@H](C)[C@@H](OC/C=C/c2cncnc2)[C@H](C)[C@@H](O[C@@H]2O[C@H](C)C[C@H](N(C)C)[C@H]2O)[C@](C)(OC)C[C@@H](C)/C(=N\O)[C@H](C)[C@@H](O)[C@]1(C)O
[out] 1.20

[in] Param item = CC[C@H]1OC(=O)[C@H](C)[C@@H](O)[C@H](C)[C@@H](O[C@@H]2O[C@H](C)C[C@H](N(C)C)[C@H]2O)[C@](C)(OC)C[C@@H](C)C(=O)[C@H](C)[C@@H](O)[C@]1(C)O ; retrieve measured log10 of MIC.
[out] 1.81

[in] Using the record for CC[C@H]1OC(=O)[C@H](C)[C@@H](OCCCc2cccnc2)[C@H](C)[C@@H](O[C@@H]2O[C@H](C)C[C@H](N(C)C)[C@H]2O)[C@](C)(OC)C[C@@H](C)/C(=N\OCc2ccccc2Cl)[C@H](C)[C@H]2OC(=O)O[C@@]21C , report its log10 of MIC.
[out] 0.90

Reference source for all entries: ChEMBL document CHEMBL1944546
